assay.name: Cmax in dog at 10 mg/kg, po
Assay type: ADME, organism-based, Canis lupus familiaris
Design: dose 10 mg/kg, route oral
settings: in vivo
readout.name: Cmax

Exercise: Sample O=C(c1ccc2c(ccn2-c2ccc(F)cc2)c1)N1CC(N2CCN(C(=O)c3nccs3)CC2)C1 — what was its Cmax?
Key: 2.86 µg/mL

---

assay.name: Drug concentration in blood of Sprague-Dawley rat at 3 mg/kg, po
Type: ADME, organism-based
settings: in vivo, read-out: Ct
readout.name: concentration (nM)
Use nM as the unit, but write only the number.

Exercise: Sample O=C(c1ccc2c(ccn2-c2ccc(F)cc2)c1)N1CC(N2CCN(C(=O)c3nccs3)CC2)C1 — what was its concentration?
Key: 135

---

assay.name: Oral bioavailability in rat at 10 mg/kg
Assay type: ADME, organism-based
settings: in vivo
readout.name: bioavailability (%)
Use % as the unit, but write only the number.

Exercise: Sample O=C(c1ccc2c(ccn2-c2ccc(F)cc2)c1)N1CC(N2CCN(C(=O)c3nccs3)CC2)C1 — what was its bioavailability?
Key: 45

---

assay.name: Clearance in rat at 10 mg/kg, po
Type: ADME, organism-based
settings: in vivo
readout.name: CL/F

Exercise: Sample O=C(c1ccc2c(ccn2-c2ccc(F)cc2)c1)N1CC(N2CCN(C(=O)c3nccs3)CC2)C1 — what was its CL/F?
Key: 19.2 mL/min/kg

---

assay.name: Drug concentration in brain of Sprague-Dawley rat at 30 mg/kg, po
Type: ADME, organism-based
settings: in vivo, read-out: Ct
readout.name: concentration

Exercise: Sample O=C(c1ccc2c(ccn2-c2ccc(F)cc2)c1)N1CC(N2CCN(C(=O)c3nccs3)CC2)C1 — what was its concentration?
Key: 3.54 µM

---

assay.name: Drug concentration in blood of Sprague-Dawley rat at 1 mg/kg, po
Format: ADME, organism-based
settings: in vivo, read-out: Ct
readout.name: concentration
Note: state the figure and append the unit.

Exercise: Sample O=C(c1ccc2c(ccn2-c2ccc(F)cc2)c1)N1CC(N2CCN(C(=O)c3nccs3)CC2)C1 — what was its concentration?
Key: 24.9 nM

---

assay.name: Drug concentration in brain of Sprague-Dawley rat at 3 mg/kg, po
Type: ADME, organism-based
settings: in vivo, read-out: Ct
readout.name: concentration (nM)
Use nM as the unit, but write only the number.

Exercise: Sample O=C(c1ccc2c(ccn2-c2ccc(F)cc2)c1)N1CC(N2CCN(C(=O)c3nccs3)CC2)C1 — what was its concentration?
Key: 339

---

assay.name: Tmax in rat at 10 mg/kg, po
Format: ADME, organism-based
settings: in vivo
readout.name: Tmax

Exercise: Sample O=C(c1ccc2c(ccn2-c2ccc(F)cc2)c1)N1CC(N2CCN(C(=O)c3nccs3)CC2)C1 — what was its Tmax?
Key: 1.75 h

---

assay.name: Drug concentration in blood of Sprague-Dawley rat at 10 mg/kg, po
Format: ADME, organism-based
settings: in vivo, read-out: Ct
readout.name: concentration (nM)
Use nM as the unit, but write only the number.

Exercise: Sample O=C(c1ccc2c(ccn2-c2ccc(F)cc2)c1)N1CC(N2CCN(C(=O)c3nccs3)CC2)C1 — what was its concentration?
Key: 519

---

assay.name: AUClast in dog at 10 mg/kg, po
Type: ADME, organism-based, Canis lupus familiaris
Set-up: dose 10 mg/kg, route oral, time 0 - last
settings: in vivo
readout.name: AUC(0-t) (ng·h/mL)
Use ng·h/mL as the unit, but write only the number.

Exercise: Sample O=C(c1ccc2c(ccn2-c2ccc(F)cc2)c1)N1CC(N2CCN(C(=O)c3nccs3)CC2)C1 — what was its AUC(0-t)?
Key: 33600
